Origin of measurements: the supplement of paper PMC4709259

# Test system: Jurkat
# protocol-details: mean cell size (FSC-A) relative to DMSO control (fraction of control); higher = larger cells
# condition-details: 48 h
Counter-ions that a name gives are not always drawn.
Returns one of fulfilled or not fulfilled; fulfilled when mean cell size is >= 1.

Below, 2 molecules whose answers are already recorded.
- molecule: "CCCc1nc(C(C)(C)O)c(C(=O)O)n1Cc1ccc(-c2ccccc2-c2nnn[nH]2)cc1 [Olmesartan] (concentration: 25 µM)"
  answer-label: "not fulfilled"
- molecule: "CC1(C)O[C@@H]2[C@@H](CO[C@@]3(COS(N)(=O)=O)OC(C)(C)O[C@@H]23)O1 [Topiramate] (concentration: 25 µM)"
  answer-label: "not fulfilled"

Exercise: # check: mean cell size of COc1ccc(OC)c(C(O)CNC(=O)CN)c1 (configuration not stated) [Midodrine·HCl] (concentration: 25 µM) is greater than or equal to 1
Key: not fulfilled

Exercise: Also, CC1(C)O[C@@H]2C[C@H]3[C@@H]4C[C@H](F)C5=CC(=O)CC[C@]5(C)[C@H]4[C@@H](O)C[C@]3(C)[C@]2(C(=O)CO)O1 [Flurandrenolide] (concentration: 25 µM) please.
Key: not fulfilled

Exercise: Also, CN(Cc1ccc(C(C)(C)C)cc1)Cc1cccc2ccccc12 [Butenafine·HCl] (concentration: 25 µM) please.
Key: not fulfilled

Exercise: Also, CCC(C)n1ncn(-c2ccc(N3CCN(c4ccc(OCC5COC(Cn6cncn6)(c6ccc(Cl)cc6Cl)O5)cc4)CC3)cc2)c1=O (configuration not stated) [Itraconazole] (concentration: 25 µM) please.
Key: fulfilled

Exercise: Also, CCc1cccc2c3c([nH]c12)C(CC)(CC(=O)O)OCC3 (configuration not stated) [Etodolac] (concentration: 25 µM) please.
Key: fulfilled

Exercise: Also, O=C(CCCN1CCC(O)(c2ccc(Cl)cc2)CC1)c1ccc(F)cc1 [Haloperidol] (concentration: 25 µM) please.
Key: fulfilled

Exercise: Also, C[C@@H](O)[C@H]1C(=O)N2C(C(=O)O)=C(S[C@@H]3CN[C@H](C(=O)N(C)C)C3)[C@H](C)[C@H]12 [Meropenem] (concentration: 25 µM) please.
Key: not fulfilled

Exercise: Also, CCN(CC)CCNC(=O)c1cc(Cl)c(N)cc1OC [Metoclopramide·HCl] (concentration: 25 µM) please.
Key: not fulfilled

Exercise: Also, COc1ccc([C@@H]2Sc3ccccc3N(CCN(C)C)C(=O)[C@@H]2OC(C)=O)cc1 [Diltiazem·HCl] (concentration: 25 µM) please.
Key: not fulfilled

Exercise: Also, CN(C)CCc1c[nH]c2ccc(CS(=O)(=O)N3CCCC3)cc12 [Almotriptan] (concentration: 25 µM) please.
Key: not fulfilled

Exercise: Also, CC(C)(C)NC[C@H](O)COc1cccc2c1CCCC2=O [Levobunolol·HCl] (concentration: 25 µM) please.
Key: not fulfilled

###

# Test system: Jurkat
# protocol-details: cell count relative to DMSO control (fraction of control); higher = more cells (less growth inhibition)
# condition-details: 48 h
Structures can show the parent of a compound that is named as a salt.
measured-property: cell count
One number for each entry.

Examples from the recorded data:
- compound: "C[C@@H]1C/C=C/C=C/C=C/C=C/[C@H](O[C@@H]2O[C@H](C)[C@@H](O)[C@H](N)[C@@H]2O)C[C@@H]2O[C@](O)(C[C@@H](O)C[C@H]3O[C@@H]3/C=C/C(=O)O1)C[C@H](O)[C@H]2C(=O)O [Natamycin] (concentration: 25 µM)"
  cell count: 1.01
- compound: "C[C@H](N)[C@H](O)c1cccc(O)c1 [Metaraminol Bitartrate] (concentration: 25 µM)"
  cell count: 0.774
- compound: "N#Cc1ccc(C(c2ccc(C#N)cc2)n2cncn2)cc1 [Letrozole] (concentration: 25 µM)"
  cell count: 0.798
- compound: "Cc1ccc(N(CC2=NCCN2)c2cccc(O)c2)cc1 [Phentolamine·HCl] (concentration: 25 µM)"
  cell count: 0.612
- compound: "CN(C)CCC=C1c2ccccc2COc2ccccc21 [Doxepin·HCl] (concentration: 25 µM)"
  cell count: 0.988

Please supply cell count for each of the following items, keeping them in order.
1. CCN(CC)C(=O)C1(c2ccccc2)CC1CN (centres undefined) [Milnacipran·HCl] (concentration: 25 µM)
2. Nc1ccn(C[C@@H](CO)OCP(=O)(O)O)c(=O)n1 [Cidofovir] (concentration: 25 µM)
3. CN1CCCC(n2nc(Cc3ccc(Cl)cc3)c3ccccc3c2=O)CC1 (centres undefined) [Azelastine·HCl] (concentration: 25 µM)
4. NCCC(O)(P(=O)(O)O)P(=O)(O)O [Pamidronate Disodium Pentahydrate (Pamidronic Acid)] (concentration: 25 µM)
5. C#CCN[C@@H]1CCc2ccccc21 [Rasagiline Mesylate] (concentration: 25 µM)
6. CC(=O)Oc1ccccc1C(=O)Nc1ncc([N+](=O)[O-])s1 [Nitazoxanide] (concentration: 2.5 µM)

Key:
0.792
0.593
0.457
0.822
1.01
0.862

Please supply cell count for each of the following items, keeping them in order.
1. Nc1nc(=O)n([C@@H]2CS[C@H](CO)O2)cc1F [Emtricitabine] (concentration: 25 µM)
2. O=NN(CCCl)C(=O)NCCCl [Carmustine] (concentration: 25 µM)
3. N=C(N)NC(=O)Cc1c(Cl)cccc1Cl [Guanfacine·HCl] (concentration: 25 µM)

Key:
0.581
0.767
0.695
